Attribution: patent US20200247855A1

# systemTested: CCL2_HUMAN (Homo sapiens, UniProt P13500)
# Sequence (P13500 24-99): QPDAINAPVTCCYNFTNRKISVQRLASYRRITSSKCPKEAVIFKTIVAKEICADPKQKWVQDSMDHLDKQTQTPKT
# assayInfo: Biolayer interferometry (BLI) binding
pKd: −log10 of the molar value.
Quick rule for you: pKd at 8 or higher means fulfilled, lower means not fulfilled.

molecule | classAssignment
P1182_AMBMA: tick CKBP, Amblyomma maculatum (protein, listed as Amblyomma maculatum) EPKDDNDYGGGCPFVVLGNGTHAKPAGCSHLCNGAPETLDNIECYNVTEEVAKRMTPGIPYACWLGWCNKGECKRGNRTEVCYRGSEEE | not fulfilled

Assess whether reported pKd for P467_RHIPU: tick CKBP (evasin), Rhipicephalus pulchellus; RPU-01 stated identical (protein, listed as Rhipicephalus pulchellus) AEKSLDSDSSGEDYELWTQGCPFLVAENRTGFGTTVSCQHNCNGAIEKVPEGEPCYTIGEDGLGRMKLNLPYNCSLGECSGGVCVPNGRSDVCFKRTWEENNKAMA sits at 8 or higher. fulfilled

Kindly determine if pKd recorded for P546_AMBCA: tick CKBP, Amblyomma cajennense (protein, Amblyomma cajennense) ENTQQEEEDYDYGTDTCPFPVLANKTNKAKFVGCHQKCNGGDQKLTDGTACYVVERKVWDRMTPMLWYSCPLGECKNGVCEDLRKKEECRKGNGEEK is above or exactly 8. not fulfilled

I'd appreciate it if you could say whether P1181_AMBMA: tick CKBP, Amblyomma maculatum (protein, listed as Amblyomma maculatum) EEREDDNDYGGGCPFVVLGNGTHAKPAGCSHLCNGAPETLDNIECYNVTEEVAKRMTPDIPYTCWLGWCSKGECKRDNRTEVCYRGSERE has pKd at least equal to 8. not fulfilled
